# Test system: Vaccinia virus
# test: Minimum inhibitory concentration against vaccinia virus in Vero cell cultures of experiment 2
# Assay type: functional
# test.context: Orthopoxvirus vaccinia
property: MIC

Known results for compounds:
input.smiles: Cl.Cl.Cn1cc(NC(=O)c2cc(NC(=O)CCCCCCCCC(=O)Nc3cc(C(=O)Nc4cc(C(=O)NCCC(=N)N)n(C)c4)n(C)c3)cn2C)cc1C(=O)NCCC(=N)N
obs.value: > 40 µg/mL
--
input.smiles: Cl.Cl.Cn1cc(NC(=O)c2cc(NC(=O)c3cc(NC(=O)CCC(=O)Nc4cc(C(=O)Nc5cc(C(=O)Nc6cc(C(=O)NCCC(=N)N)n(C)c6)n(C)c5)n(C)c4)cn3C)cn2C)cc1C(=O)NCCC(=N)N
obs.value: > 4 µg/mL

Proceeding to the next compound to report its MIC.
**Q:** Which MIC is listed for Cl.Cl.Cn1cc(NC(=O)CCC(=O)Nc2cc(C(=O)NCCC(=N)N)n(C)c2)cc1C(=O)NCCC(=N)N ?
**A:** > 400 µg/mL
